ASSAY TARGET: Integrin alpha-V/beta-3 (Homo sapiens, UniProt P05106+P06756)
ASSAY PROTOCOL: Binding affinity to human integrin alphaVbeta3 receptor using acetyl-CisoDGRCGVRSSSRTPSDKY-bio probe and streptavidin-peroxidase conjugate incubated for 3 hrs by competitive binding assay
Bridge positions count the residues as written; N and C are the ends. Square brackets hold non-standard residues; d marks the D form. Peptide text beside a SMILES is read from it. * marks the point of attachment. X2 = O=C(O)CN1CCN(CC(=O)O)CCN(CC(=O)NCCN2C(=O)CC(*)C2=O)CC1; X1 = NC(=O)[C@H]1CC[C@H](CN2C(=O)CC(*)C2=O)CC1; Succinimide(1-Et,3-yl) = CCN1C(=O)CC(*)C1=O
PROPERTY NAME: Ki (nM)
Give bare numbers, in nM.

Solved cases (3 shown):
N=C(N)NCCC[C@@H]1NC(=O)[C@H](CS)NC(=O)[C@@H](Cc2ccccc2)NC(=O)[C@H](CC(=O)O)NC(=O)CNC1=O (cyclo(RGD[dF]C))    6.3
N=C(N)NCCC[C@@H]1NC(=O)CNC(=O)C[C@@H](C(=O)O)NC(=O)CNC(=O)[C@H](CSC2CC(=O)N(CCNC(=O)CN3CCN(CC(=O)O)CCN(CC(=O)O)CC3)C2=O)NC(=O)CNC1=O (some centres undefined) (GRGC(X2)GD-OH; lactam N-6)    21.6
N=C(N)NCCC[C@@H]1NC(=O)CNC(=O)C[C@@H](C(=O)O)NC(=O)CNC(=O)[C@H](CSC2CC(=O)N(C[C@H]3CC[C@H](C(N)=O)CC3)C2=O)NC(=O)CNC1=O (some centres undefined) (GRGC(X1)GD-OH; lactam N-6)    19.9

Recorded result, CCN1C(=O)CC(SC[C@@H]2NC(=O)CNC(=O)[C@H](CCCNC(=N)N)NC(=O)CNC(=O)C[C@@H](C(=O)O)NC(=O)CNC2=O)C1=O (some centres undefined) (GRGC(Succinimide(1-Et,3-yl))GD-OH; lactam N-6) , Ki: 26.5
